Test system: 755483-174-R-J1-PDC complex spheroid growth, percent test/control
Assay: Anticancer human tumor 755483-174-R-J1-PDC patient-derived rhabdomyosarcoma cell line growth inhibition [Asc]
Conditions: second compound 0.1 µM; first compound 3 µM; active compounds read low
READOUT: viability, T/C (%)
One number for each entry, in %.

Take a look at these entries with their results.
MOLECULE	viability, T/C, %
CCN1C(C(=O)NC23CCC(C(=O)O)(CC2)CC3)C(c2cccc(Cl)c2F)C2(C(=O)Nc3cc(Cl)ccc32)C12CCCCC2 (centres undefined) + CNC(C)C(=O)NC1CN(S(=O)(=O)c2cccc(S(=O)(=O)N3CCC4CCC(C(=O)NC(c5ccccc5)c5ccccc5)N4C(=O)C(NC(=O)C(C)NC)C3)c2)CCC2CCC(C(=O)NC(c3ccccc3)c3ccccc3)N2C1=O	24.4
Cc1nc(N2CCC3(CC2)COC(C)C3N)c(CO)nc1Sc1ccnc(N)c1Cl (centres undefined) + Cc1c(S(C)(=O)=O)c(-c2cc(F)cc(N3CCN(c4ccc(NS(=O)(=O)c5ccc(NC(CCN6CCC(C(=O)OCCCP(=O)(O)O)CC6)CSc6ccccc6)c(S(=O)(=O)C(F)(F)F)c5)cc4)CC3)c2)c(-c2ccc(Cl)cc2)n1C(C)C	13.8
CCN1C(C(=O)NC23CCC(C(=O)O)(CC2)CC3)C(c2cccc(Cl)c2F)C2(C(=O)Nc3cc(Cl)ccc32)C12CCCCC2 (centres undefined) + Cc1c(S(C)(=O)=O)c(-c2cc(F)cc(N3CCN(c4ccc(NS(=O)(=O)c5ccc(NC(CCN6CCC(C(=O)OCCCP(=O)(O)O)CC6)CSc6ccccc6)c(S(=O)(=O)C(F)(F)F)c5)cc4)CC3)c2)c(-c2ccc(Cl)cc2)n1C(C)C	38.7

Continue with the next molecule.
Query: Request the reported viability, T/C associated with Cc1nc(N2CCC3(CC2)COC(C)C3N)c(CO)nc1Sc1ccnc(N)c1Cl (centres undefined) + CNC(C)C(=O)NC1CN(S(=O)(=O)c2cccc(S(=O)(=O)N3CCC4CCC(C(=O)NC(c5ccccc5)c5ccccc5)N4C(=O)C(NC(=O)C(C)NC)C3)c2)CCC2CCC(C(=O)NC(c3ccccc3)c3ccccc3)N2C1=O
Response: 18.5

----------
Give viability, T/C for every item shown.
System: 755483-174-R-J1-PDC complex spheroid growth, percent test/control
Experiment: Anticancer human tumor 755483-174-R-J1-PDC cell line growth inhibition [Asc];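 further: spheroids exposed to compounds for seven days before readout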
Conditions: second compound 1 µM; first compound 0.3 µM; active compounds read low
Give bare numbers, in %.

Take a look at these entries with their results.
COMPOUND	viability, T/C [%]
Cc1nc(N2CCC3(CC2)COC(C)C3N)c(CO)nc1Sc1ccnc(N)c1Cl (stereo not drawn) + Cc1c(S(C)(=O)=O)c(-c2cc(F)cc(N3CCN(c4ccc(NS(=O)(=O)c5ccc(NC(CCN6CCC(C(=O)OCCCP(=O)(O)O)CC6)CSc6ccccc6)c(S(=O)(=O)C(F)(F)F)c5)cc4)CC3)c2)c(-c2ccc(Cl)cc2)n1C(C)C	21.9
NC(=O)C(=Cn1cnc(-c2cc(C(F)(F)F)cc(C(F)(F)F)c2)n1)c1cncnc1 + Cc1c(S(C)(=O)=O)c(-c2cc(F)cc(N3CCN(c4ccc(NS(=O)(=O)c5ccc(NC(CCN6CCC(C(=O)OCCCP(=O)(O)O)CC6)CSc6ccccc6)c(S(=O)(=O)C(F)(F)F)c5)cc4)CC3)c2)c(-c2ccc(Cl)cc2)n1C(C)C	2.25

Continue with the next compound.
Query: Request the reported viability, T/C associated with CCN1C(C(=O)NC23CCC(C(=O)O)(CC2)CC3)C(c2cccc(Cl)c2F)C2(C(=O)Nc3cc(Cl)ccc32)C12CCCCC2 (stereo not drawn) + Cc1c(S(C)(=O)=O)c(-c2cc(F)cc(N3CCN(c4ccc(NS(=O)(=O)c5ccc(NC(CCN6CCC(C(=O)OCCCP(=O)(O)O)CC6)CSc6ccccc6)c(S(=O)(=O)C(F)(F)F)c5)cc4)CC3)c2)c(-c2ccc(Cl)cc2)n1C(C)C
Response: 45.5
